All values here come from PubChem BioAssay (NCI).

system: CCRF-CEM leukemia; assay: NCI tumour cell line growth inhibition, 48 h
Below, each entry is listed with its recorded TGI.
parameter_measured: TGI

                                   compound        test_target     result
0  COC(=O)[C@]1(C)CCC[C@@]2(C)C1CC[C@@]13C=C(C(C)C)[C@@H](CC1=O)CC23 (stereo not given in full)  CCRF-CEM leukemia    42.4 µM
1                      CCCCCCCCCCCCNC(=S)OC  CCRF-CEM leukemia    33.3 µM
2         CN(C)C(=S)/N=c1\ssc(=S)n1C1CCCCC1  CCRF-CEM leukemia    46.1 µM
3  COc1cc(OCCN(C)C)c2[nH]c(C(=O)N3CC(CCl)c4ccc(N)cc43)cc2c1 (stereo not given)  CCRF-CEM leukemia  0.0684 µM
4  Cc1ccc(S[C@@H](C)[C@@](O)(CF)CN(Cc2ccccc2)C(=O)C(F)(F)F)cc1  CCRF-CEM leukemia   > 100 µM

====

test system: SR leukemia; assay: NCI tumour cell line growth inhibition, 48 h
parameter_measured: TGI

In [3]: df
Out[3]:
                                   molecule  parameter_measured    result
0  COc1ccc(S(=O)(=O)n2c3c(c4ccccc42)[C@@H]2[C@@H](CCCN2C(=O)CS(=O)c2ccc(C)cc2)[C@H](Cl)C3)cc1 (stereo partly drawn)                 TGI  > 100 µM
1           CCOC(=O)c1cn2c(n1)sc1cc(F)ccc12                 TGI  > 100 µM
2  O=C1c2cc3c(cc2CC12Cc1ccc4c(c1C2=O)CCC4)CCCC3 (stereo not drawn)                 TGI  > 100 µM

====

system: CAKI-1 renal; test: NCI tumour cell line growth inhibition, 48 h
*1 amine or outer side, *2 acyl side, *3 side chain or, on linkers, in order; H or OH if unused. Where a SMILES comes first, the peptide text is derived from it. Bridges are numbered along the chain shown (N, C = ends). Roman numbers before positions name the chains, in order. [ ]: non-standard residue; d: D form. Actinocin(9to1) = Cc1c2oc3c(C)ccc(C(=O)[*:1])c3nc-2c(C(=O)[*:2])c(N)c1=O; NMeV = CN[CH](C(=O)O)C(C)C; Sar = CNCC(=O)O
TGI values for the molecules below.

molecule	TGI
Cc1c2oc3c(C)ccc(C(=O)NC4C(=O)NC(C(C)C)C(=O)N5CCCC5C(=O)N(C)CC(=O)N(C)C(C(C)C)C(=O)OC4C)c3nc-2c(C(=O)NC2C(=O)NC(C(C)C)C(=O)N3CCCC3C(=O)N(C)CC(=O)N(C)C(C(C)C)C(=O)OC2C)c(N)c1=O (stereo not given) (I: TVP[Sar][NMeV] / II: TVP[Sar][NMeV]; ester I:1-I:C, II:1-II:C; linker I:N-II:N via Actinocin(9to1); configuration not given here)	> 0.316 µM
N#C/C(N)=C(\C#N)NC=NCCO	> 100 µM
CCNC(=O)C#Cc1ccc2c(C(=Nc3ccc(CN(C)C)cc3)c3ccccc3)c(O)[nH]c2c1	> 9.05 µM
Cc1ccc(NC2=C3CCCCC3OC2=O)cc1 (stereo not given)	> 100 µM
Cc1[nH]c(=O)nc2sc(=NC3CCCCC3)n(C3CCCCC3)c(=O)c12	> 100 µM
CON(C)C(=O)C(Cc1ccccc1)NC(=O)OCc1ccccc1 (stereo not given)	> 100 µM
Cn1cc(-c2cc3c(N4CCN(c5ncc([C@@](C)(N)c6ccc(F)cc6)cn5)CC4)ncnn3c2)cn1	> 100 µM
C/C(CN1C(=O)c2ccccc2C1=O)=N\NS(=O)(=O)c1ccc(Cl)cc1	> 100 µM
Cc1ccc(S(=O)(=O)N2CC2CCCCC=O)cc1 (stereo not given)	> 100 µM
C[C@@H]1CC[C@H]2C(C)(C)[C@H]3C[C@@]12CC[C@@]3(C)O	> 100 µM

====

# TGI annotations
tested on: SNB-19 CNS; assay: NCI tumour cell line growth inhibition, 48 h
parameter_measured: TGI

                                   compound  test_target    result
0  COc1ccc(S(=O)(=O)n2c3c(c4ccccc42)[C@@H]2[C@@H](CCCN2C(=O)CS(=O)c2ccc(C)cc2)[C@H](Cl)C3)cc1 (stereo partly specified)   SNB-19 CNS  > 100 µM
1           N#Cc1cccc(-n2[nH]c(=O)ccc2=O)c1   SNB-19 CNS  > 100 µM
2  Nc1nc2[nH]cc(CCc3ccc(C(=O)N[C@@H](CCC(=O)O)C(=O)O)cc3)c2c(=O)[nH]1   SNB-19 CNS  > 100 µM
3  COc1cc(S(=O)(=O)Nc2ccc(-c3csc(N4C(=O)CSC4c4cccc(Oc5ccccc5)c4)n3)cc2)ccc1Cl (stereo unspecified)   SNB-19 CNS  > 100 µM
4  CC(=O)N[C@@H](Cc1ccc(OP(=O)(O)O)cc1)C(=O)N[C@H]1CCC(=O)N2CCC[C@@H](C(=O)Nc3cccc4ccccc34)N2C1=O   SNB-19 CNS   > 25 µM
5                                NCCNCCNCCN   SNB-19 CNS  > 100 µM

====

Consider the following molecules and their measured GI50 readings.
test system: OVCAR-5 ovarian; assay: NCI tumour cell line growth inhibition, 48 h
parameter_measured: GI50

                                   molecule  parameter_measured    result
0  CCCCCCOc1ccc(/C=N/Nc2cc(C)nc3ccc(Cl)cc23)cc1                GI50   1.92 µM
1  O=C(Nc1cccc(C(F)(F)F)c1)Nc1cccc(C(F)(F)F)c1                GI50   3.24 µM
2  O=C1c2c(F)c(F)c(F)c(F)c2C(=O)N1c1ccc(F)cc1F                GI50   12.6 µM
3  COc1cc(-c2nc3sccn3c2-c2ccnc(NCCNS(=O)(=O)c3ccc(F)cc3)n2)ccc1F                GI50   6.51 µM
4      NC(=S)N/N=C\c1nccc2c(C(F)(F)F)cccc12                GI50  0.445 µM
5         COc1c2ccccc2c(OC)c2[nH]c(=O)ccc12                GI50   8.02 µM
6  COc1cc2c(cc1OC)-c1cc(OC)c(OC)cc1C(CN(C)C)C2 (stereo not drawn)                GI50   > 10 µM
7  O=C(Nc1nn2c(-c3cc(C(F)(F)F)cc(C(F)(F)F)c3)nnc2s1)C1CCCC1                GI50   2.63 µM

====

Property: GI50; scope: individual compounds
tested on: CCRF-CEM leukemia; assay: NCI tumour cell line growth inhibition, 48 h
parameter_measured: GI50

                                   compound   result
0  COc1cc(/C=C2\CN(S(=O)(=O)c3ccc(C)cc3)C/C(=C\c3cc(CN4CCCC4)c(O)c(OC)c3)C2=O)cc(CN2CCCC2)c1O  53.5 nM
1  C=C1C(=O)O[C@H]2[C@H]1CC/C(CNC(=O)c1cc3ccccc3[nH]1)=C\CC[C@@]1(C)O[C@@H]21   375 nM
2  CCOC(=O)n1cc(C2=C(c3ccc(OC)c(OC)c3)COC2=O)c2ccccc21  36.7 nM
3  CCCCCCCCCCSC(=N)N (tested in a mixture with another compound)  3650 nM
4  O=C(Nc1cccc(C(F)(F)F)c1)Nc1cccc(C(F)(F)F)c1   721 nM

====

system: OVCAR-5 ovarian; test: NCI tumour cell line growth inhibition, 48 h
*1 amine or outer side, *2 acyl side, *3 side chain or, on linkers, in order; H or OH if unused. Where a SMILES comes first, the peptide text is derived from it. Bridges are numbered along the chain shown (N, C = ends). Roman numbers before positions name the chains, in order. [ ]: non-standard residue; d: D form. Actinocin(9to1) = Cc1c2oc3c(C)ccc(C(=O)[*:1])c3nc-2c(C(=O)[*:2])c(N)c1=O; NMeV = CN[CH](C(=O)O)C(C)C; Sar = CNCC(=O)O
Recorded TGI, one value per entry.
parameter_measured: TGI (µM)

compound	test_target	parameter_measured	unit_abbrev	qualifier_sign	quantitative_result
CCCC/C=C/C=C/C=C/CCCCCCCC(=O)OCC(COC(=O)CCCCCCC/C=C/C1C=CC(CCCC)C(C(=O)O)C1C(=O)O)OC(=O)CCCCCCC/C=C/C=C/C=C/CCCC (stereo unspecified) (tested in a mixture with another compound)	OVCAR-5 ovarian	TGI	µM	=	43.1
CN(C)CC1CCC/C1=N/OC(=O)c1ccccc1 (stereo unspecified)	OVCAR-5 ovarian	TGI	µM	>	100
COCCOCOC(CCCCO)c1cc(C)c(O[Si](C)(C)C(C)(C)C)c(C)c1 (stereo unspecified)	OVCAR-5 ovarian	TGI	µM	=	26.7
Cc1c2oc3c(C)ccc(C(=O)NC4C(=O)NC(C(C)C)C(=O)N5CCCC5C(=O)N(C)CC(=O)N(C)C(C(C)C)C(=O)OC4C)c3nc-2c(C(=O)NC2C(=O)NC(C(C)C)C(=O)N3CCCC3C(=O)N(C)CC(=O)N(C)C(C(C)C)C(=O)OC2C)c(N)c1=O (stereo unspecified) (I: TVP[Sar][NMeV] / II: TVP[Sar][NMeV]; ester I:1-I:C, II:1-II:C; linker I:N-II:N via Actinocin(9to1); configuration not given here)	OVCAR-5 ovarian	TGI	µM	=	0.00663
COc1c2ccccc2c(OC)c2[nH]c(=O)ccc12	OVCAR-5 ovarian	TGI	µM	>	85.4
CON(C)C(=O)C(Cc1ccccc1)NC(=O)OCc1ccccc1 (stereo unspecified)	OVCAR-5 ovarian	TGI	µM	>	100
